Source listed as the DeepSol protein solubility set.

assay: soluble on expression in E. coli; label from the status in PepcDB or PDB records
REPORTED METRIC: soluble on expression in E. coli

sequence_record=SGRLSVSRQNFEVHKHLNRLNKPAVKSIQSPDGDIIDCVHISKQPAFDHPFLKDHKIQMGPSYTPESLFGESKVSEKPKESVNPITQLWHQNGVCSEGTIPVRRTKKEDVLRASSVKRYGKKKHLSVPLPRSADPDLINQSGHQHAIAYVEGGKFYGAKATINVWEPKVQSSNEFSLSQLWILGGSFGQDLNSIEAGWQVSPDLYGDNNTRLFTYWTSDAYQATGCYNLLCSGFIQINSQIAMGASISPVSGFHNPQYDISITIWKDPKEGHWWMQFGDGYVLGYWPSFLFSYLADSASIVEWGGEVVNMEEDGHHTTTQMGSGQFPDEGFTKASYFRNIQVVDSSNNLKEPKGLNTFTEKSNCYDVEVGKNDDWGHYFYYGGPGRNPNCQ result=soluble
sequence_record=MINRKIGFIGAGKMGSALMQGIIKAGIVQPENIGASDVYEPFLKELQTKLGIRVSTDNTVIVRESDILILAVKPQTLGSVLENLKNEITSEKLVISIAAGVPLSTYEGALLEGTRVVRVMPNIAATVSEAASGISPGKNATPEDMKDALTIFSAVGTAVQVPESLMDAVTGLSGSGPAFIFPVIEAMADGAVLEGMDRKSALTLAAQTVLGAAKMALETGMHPGELKDMVTSPAGTTIQGVHALEEAGIRAAFMNAVIRASERSRELGKKAAALEHHHHHH result=soluble

---

assay: soluble on expression in E. coli; label from the status in PepcDB or PDB records
REPORTED METRIC: soluble on expression in E. coli

sequence_record=MKPIACLFAAFAALPVLAHAQTVQMPDVLAAEHALSLGKPVTATIDLTRCTGDTATTPAGTTRGGVTVNPYRIQPDNTLSFSDTHFTVRSDGTPITQFLRYSIDTSGTARFSSYIFAMPAYTLQSQVSYTCKLGEGVKLFARFLEHHHHHH reported_metric="soluble on expression in E. coli" result=soluble
sequence_record=VMVFISSSLNSFRSEKRYSRSLTIAEFKCKLELVVGSPASCMELELYGADDKFYSKLDQEDALLGSYPVDDGCSIHVIDHSG reported_metric="soluble on expression in E. coli" result=soluble
sequence_record=RTNRTGMATAIPDSLHKIFYTAAGRRVEDAGGILPDIEVKQDTAATLLYYMAINNDVFDFVTGYVLKHKTIAKPEDFSITNEDYAAFCKMMEEKKFDYDRQSGKMLDKLEELAKIEGYLPEANSELKALREKLKPNLSRDLLRFKKEITNYLNNEIVTRYYYERGSIRQSLPEDKVVKEAIKLLKDHPEQIRQILAAPKAENKG reported_metric="soluble on expression in E. coli" result="not soluble"
sequence_record=MAINNSAQKFIARNRAPRVQIEYDVEIYGSEKKIELPFVMAVLADLAGKPREELPPVTDRKFLDIDIDNFNERMKAIAPRVAFAVPNTLTGEGQLMVDITLENMDDFSPAQIARKVDALNQLLEARTQLANLQTYMDGKAGAENLVNKLLQDPTLLKTLANAPKSAATQQDVSADNESAE reported_metric="soluble on expression in E. coli" result="not soluble"
sequence_record=MAHHHHHHMENINRVNKYDNPNEAIKNMVDKIINKKEMMKYFLDAQDIFEYHDVGKKGEVDITLFPKMARQLKQVYDIRDINNFKKEMKIKKIYKMDLQLFFTLLKRKILYSINNSNNNENDNSSFRQHYDILDMKKKQLLDVDELRTYLGLMGDKINPDDFNILLRYNLINNHRINKDDIVLDENKEIKNISFNAYVDMLTCYKYI reported_metric="soluble on expression in E. coli" result="not soluble"
sequence_record=MRDLYPLTRRRLLTAMALSPLLWQMNTAQAAAIDPRRIVALEWLPVELLLALGITPYGVADVPNYKLWVSEPPLPDSVIDVGLRTEPNLELLTEMKPSFMVWSAGYGPSPEKLARIAPGRGFDFSDGKKPLAVARRSLVELAQTLNLEAAAEKHLAQYDRFIASQKPHFIRRGGRPLLMTTLIDPRHMLVLGPNCLFQEVLDEYGIVNAWQGETNFWGSTAVSIDRLAMYKEADVICFDHGNNTDMNALMATPLWQAMPFVRAGRFHRVPAVWFYGATLSTMHFVRILNNVLGGKA reported_metric="soluble on expression in E. coli" result="not soluble"
sequence_record=MKVEEQYLQLFRENREAIDSHSPRVLNEQREKASMAFASKGLPRYGTENYQRTDLSELFGYDYGVNLNRVNFPIRQKEAFHCTLPDLDTDLCYIVNDAYDNEWSRVSELPEGAFVGSLSDFALSHPEIAARYYAQAAAPDHDGIIAFSTMFAQDGFIIYLPDGAVLKNPIQLVQLLRADMEIL reported_metric="soluble on expression in E. coli" result="not soluble"
sequence_record=MYKTIIMPVDVFEMALSDKAVRHAEFLAQQDGVIHLLHVLPGSASFTMSRFTADLRRFEEHLQHEAETRLQTMVSHFSIDPSRIKLHVRFGSVRDMVNELASEINADVVVIGSRNPSISTHLLGSNASSVIRHAHIPVMVVR reported_metric="soluble on expression in E. coli" result="not soluble"

---

experiment: soluble on expression in E. coli; label from the status in PepcDB or PDB records
REPORTED METRIC: soluble on expression in E. coli

sequence_record=MKIALINENSQASKNHIIYDSLKEATDKKGYQLFNYGMRGEEGESQLTYVQNGLMAAILLNTKAVDFVVTGCGTGVGAMLALNSFPGVVCGLAVDPTDAYLYSQINGGNALSIPYAKGFGWGAELTLKLMFERLFAEEMGGGYPRERVIPEQRNARILNEVKQITHNDLMTILKIIDQDFLKDTISGKYFQEYFFENCQDDEVAAYLKEVLA result="not soluble"
sequence_record=GAMGMNGIDDLLNINDRIKQVQNERNELASKLQNLKQSLASNDTGGGSGGGSDSSDLLQREAILANELNILDNLKTFLNLIKEVKTNLNILELENCYYSLQSLRKKMRNNAAYLKQSFNFQQSISTYVDTLHLELVSTLYKILTNGFWKITENSIQFTPTVEWGKDKVHIEYDTFMDFVAQQYFPKGSLDNQAWFILDMTSADSQEQVRAKLNTIMKEYMNLSRIVSMIKNSIFISGKEISYENEKNILVFSKSSSHGQHCVSTVLTSFEAVCDFMLDGLAFRDRKTLSYELGPLFNTEFTKFVKNNASIILESLDSPLKNLVSVINNKLTRLVAKSEVTNWTHSGKEIQDLLMN result=soluble
sequence_record=MVDLEQEFALGGRCLAFHGPLMYEAKILKIWDPSSKMYTSIPNDKPGGSSQATKEIKPQKLGEDESIPEEIINGKCFFIHYQGWKSSWDEWVGYDRIRAYNEENIAMKKRLANEAKEAKKSLLEHHHHHH result=soluble
sequence_record=MGSDKIHHHHHHMTKKVLILGAHGKIARLAEKEFLEKTDDSLKLFLRKASRLNPVQPDRETVIEGDATNLEQLVAAMQGVDAVYANLAGGDIKQQAQAVVKAMDKVGIKRLVWISTLGIYDEVPGKFGEWNNSTLGSYITNYRAAADVIEDSDLDYTIVRPAWLTNNDEVDFEVTQKGEVFKGTEVSRKSIAHIVVELIQNNTELKHSIGVNKPNTDGDKPSWY result="not soluble"
sequence_record=MSQIEFKNVSKVYPNGHVGLKNINLNIEKGEFAVIVGLSGAGKSTLLRSVNRLHDITSGEIFIQGKSITKAHGKALLEMRRNIGMIFQHFNLVKRSSVLRNVLSGRVGYHPTWKMVLGLFPKEDKIKAMDALERVNILDKYNQRSDELSGGQQQRISIARALCQESEIILADEPVASLDPLTTKQVMDDLRKINQELGITILINLHFVDLAKEYGTRIIGLRDGEVVYDGPASEATDDVFSEIYGRTIKEDEKLGVN result="not soluble"
sequence_record=MLSRFSGKVALVTGSSNGIGRAAAVLFAKDGAKVTVTGRNAERLEETRQEILKSGVPESHVLSVATDLAAEKGQDELVNSTIQKFGRLDILVNNAGAAFNDDQGRVGVDQDVSVYDKIMQINMRSVVTLTQKAKEHLVKAKGEIVNVSSIAGTAHAQPGVMYYAMSKSALDQFTRCAAIDLIQYGVRVNSVSPGGVTTGFGEAMGMPSGAFEEMMKFMESRKECIPSGAVAKPIDIANIIAFLADRKLSSYIIGQSIVADGGSTLVLGMNAHNWADLMKQS result="not soluble"
sequence_record=GPSLSGELHIFCSVTAAYSHLPPILDRFRAEHPSVEIKLTTGDAADAMEKVVTGEADLAIAGKPETLPGAVAFSMLENLAVVLIAPALPCPVRNQVSADKPDWSTVPFIMADQGPVRRRIELWFRRNKISNPMIYATVGGHEAMV result="not soluble"

---

test: soluble on expression in E. coli; label from the status in PepcDB or PDB records
REPORTED METRIC: soluble on expression in E. coli

sequence_record=MSLEKLMALYNISSPSGKEGKIAGFIIGELRRMGIPFRQDRYGNIYAVKGNRESYPCVVAHMDEVHRRKTGSYAAHLVADSMIVGYDHKRKRMTGIGADDKNGIWICLKCLEDFKAVKCAFFVQEEIGCIGSGHADMSFFSDCRFVIQCDRKGNGDMVTQINGMRLCSNEFISAVDPRKYGYKPAQGLATDVAALKRNGLEVSCVNLSCGYYEPHTDNEYTVLADLCKCYRFVRHIICCHKEGHHHHHH reported_metric="soluble on expression in E. coli" result=soluble
sequence_record=CLKEGGDSNSEKFIVGTNATYPPFEFVDKRGEVVGFDIDLAREISNKLGKTLDVREFSFDALILNLKQHRIDAVITGMSITPSRLKEILMIPYYGEEIKHLVLVFKGENKHPLPLTQYRSVAVQTGTYQEAYLQSLSEVHIRSFDSTLEVLMEVMHGKSPVAVLEPSIAQVVLKDFPALSTATIDLPEDQWVLGYGIGVASDRPALALKIEAAVQEIRKEGVLAELEQKWGLNNLEHHHHHH reported_metric="soluble on expression in E. coli" result=soluble
